FYI, the data here is from patent US8129532B2.

METHOD: One-photon absorption and emission spectra in multilamellar lipid vesicles, water and ethanol
Format: physicochemical
CONDITION: one photon; soybean multi-lamellar lipid vesicles
From the text: […] The column indicating relative signal change for one-photon fluorescence also lists the excitation light source used and the lower bounds of the long-pass emission detected. Absorption and emission spectra were obtained for a series of dyes with different acceptors: pyridinium (PY-1261), quinolinium (PY-212), and acridinium (PY-2240).
EXPERIMENTAL ENDPOINT: 1PF Abs. Max (nm)

CCN(CC)c1ccc(-c2ccc(/C=C/c3cc[n+](CCC[N+](CC)(CC)CC)cc3)s2)s1	547
CCCCN(CCCC)c1ccc2cc(/C=C/C=C/C=C/c3cc[n+](CCC[N+](C)(C)C)c4ccccc34)ccc2c1.[Br-].[Br-] [di-4-ANHTQPQ, reference compound]	504
CCCCN(CCCC)c1ccc(/C=C/c2cc[n+](CCC[N+](CC)(CC)CC)cc2)s1	536
CCCCN(CCCC)c1ccc2cc(/C=C/C=C/c3cc[n+](CCC[N+](C)(C)C)c4ccccc34)ccc2c1.[Br-].[Br-] [di-4-ANBDQPQ, Di-4-ANBDQPQ, reference compound]	539
CCN(CC)c1ccc(-c2ccc(-c3ccc(/C=C/c4cc[n+](CCC[N+](CC)(CC)CC)cc4)s3)s2)s1	535

###

METHOD: One-photon absorption and emission spectra in multilamellar lipid vesicles, water and ethanol
Type: physicochemical
CONDITION: one photon; soybean multi-lamellar lipid vesicles
EXPERIMENTAL ENDPOINT: 1PF Abs. Max (nm)

CCCCN(CCCC)c1ccc2cc(/C=C/c3cc[n+](CCC[N+](C)(C)C)c4ccccc34)ccc2c1.[Br-].[Br-] [di-4-ANEQPQ, reference compound]	528
CC[N+](CC)(CC)CCC[n+]1ccc(/C=C/c2ccc(-c3ccc(N4CCCC4)s3)s2)cc1	551
CCCN(CCC)c1ccc(-c2ccc(/C=C/c3cc[n+](CCC[N+](CC)(CC)CC)cc3)s2)s1	547
CCC[N+](CCC)(CCC)CCC[n+]1ccc(/C=C/c2ccc(-c3ccc(N(CC)CC)s3)s2)cc1	555
CCN(CC)c1ccc(-c2ccc(/C=C(\F)c3cc[n+](CCC[N+](CC)(CC)CC)cc3)s2)s1	565
CCCCN(CCCC)c1ccc(-c2ccc(/C=C/c3cc[n+](CCC[N+](CC)(CC)CC)cc3)s2)s1	552
CC[N+](CC)(CC)CCC[n+]1ccc(/C=C/c2ccc(-c3ccc(N(C)C)s3)s2)cc1	530

###

Test system: NIE-115 mouse neuroblastoma
METHOD: Time-dependence (kinetics) of SHG and 2PF signal change after voltage-clamp step
Type: cell-based
CONDITION: time resolution 5 ms
EXPERIMENTAL ENDPOINT: SHG Kinetics (exponential time constant) (ms)
Enter your answer as a number in ms; do not include the unit.

Consider the reported SHG Kinetics (exponential time constant) for these compounds:
CCCN(CCC)c1ccc(-c2ccc(/C=C/c3cc[n+](CCC[N+](CC)(CC)CC)cc3)s2)s1 [PY-1286, Di-3-BTEPPTEA]	27
CCCCN(CCCC)c1ccc2cc(/C=C/c3cc[n+](CCC[N+](C)(C)C)c4ccccc34)ccc2c1.[Br-].[Br-] [di-4-ANEQPQ, reference compound]	76
CCCCN(CCCC)c1ccc2cc(/C=C/C=C/C=C/c3cc[n+](CCC[N+](C)(C)C)c4ccccc34)ccc2c1.[Br-].[Br-] [di-4-ANHTQPQ, reference compound]	34
CCCCN(CCCC)c1ccc(-c2ccc(/C=C/c3cc[n+](CCC[N+](CC)(CC)CC)cc3)s2)s1 [PY-1266, Di-4-BTEPPTEA]	23

Return reported SHG Kinetics (exponential time constant). Input compound: CC[N+](CC)(CC)CCC[n+]1ccc(/C=C/c2ccc(-c3ccc(N(C)C)s3)s2)cc1 [PY-1282] 16
